- Test system: Cricetinae gen. sp.
- ASSAY SUMMARY: Tested anti-hypercholesterolaemic value(AHV) is the ratio of observed reduction in serum cholesterol to difference between control and baseline levels x100 at 10 mg/kg/day dose
- Assay type: functional
Threshold rule: AHV greater than or equal to 50% is Criterion met; below that, Criterion not met.

# count of solved cases: 3
CCCCCCCN(CCCCCS(=O)(=O)c1nc(-c2ccccc2)c(-c2ccccc2)[nH]1)C(=O)Nc1ccc(F)cc1F = Criterion not met
CCCCCCCN(CCCCCSc1nc(-c2ccccc2)c(-c2ccccc2)[nH]1)C(=O)Nc1ccc([N+](=O)[O-])cc1 = Criterion not met
CCCCCCCN(CCCCCSc1nc(-c2ccccc2)c(-c2ccccc2)[nH]1)C(=O)CCC = Criterion not met

Pending molecule:
Prompt: // inclusive: AHV at least 50%? input: CCCCCCCN(CCCCCSc1nc(-c2ccccc2)c(-c2ccccc2)[nH]1)C(=O)NCCC
Response: Criterion met

###

Reported log10(IC50) values for the following compounds.
- SUBJECT OF TEST: Sterol O-acyltransferase 1 (Rattus norvegicus)
- Sequence (O70536 whole entry): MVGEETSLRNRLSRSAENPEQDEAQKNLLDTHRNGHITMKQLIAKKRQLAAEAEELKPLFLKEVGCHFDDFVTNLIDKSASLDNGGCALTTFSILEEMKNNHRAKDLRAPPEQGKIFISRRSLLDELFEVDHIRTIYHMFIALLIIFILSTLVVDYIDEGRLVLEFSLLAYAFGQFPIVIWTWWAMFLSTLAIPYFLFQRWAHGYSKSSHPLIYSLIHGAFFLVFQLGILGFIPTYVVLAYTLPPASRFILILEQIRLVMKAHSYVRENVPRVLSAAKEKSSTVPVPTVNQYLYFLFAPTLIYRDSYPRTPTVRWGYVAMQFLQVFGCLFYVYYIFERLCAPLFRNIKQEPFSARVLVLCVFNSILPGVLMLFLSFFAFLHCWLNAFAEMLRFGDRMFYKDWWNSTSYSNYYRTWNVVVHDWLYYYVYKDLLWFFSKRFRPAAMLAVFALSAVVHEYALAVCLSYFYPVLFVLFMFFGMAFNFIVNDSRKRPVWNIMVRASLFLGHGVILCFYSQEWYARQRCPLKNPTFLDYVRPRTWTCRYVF
- ASSAY SUMMARY: In vitro inhibition of Acyl coenzyme A:cholesterol acyltransferase in rat hepatic microsomes
- Parameters: species or system Liver
Kindly note that the scale is log10 and the underlying IC50 is in nM.

Look over these answered cases.
CCCCCCCN(CCCCCNc1nc(-c2ccccc2)c(-c2ccccc2)[nH]1)C(=O)Nc1ccc(F)cc1F = 3.54
CCCCCCCN(CCCCCSc1nc(-c2ccccc2)c(-c2ccccc2)[nH]1)/C(S)=N\c1ccc(F)cc1F = 1.76
CCCCCCCN(CCCCCSc1nc(-c2ccccc2)c(-c2ccccc2)[nH]1)C(=O)Nc1c(C(C)C)cccc1C(C)C = 2.36
O=C(Nc1ccc(F)cc1F)N(CCCCCSc1nc(-c2ccccc2)c(-c2ccccc2)[nH]1)CCc1ccccc1 = 2.23
CCCCCCCCNC(=O)N(CCCCCSc1nc(-c2ccccc2)c(-c2ccccc2)[nH]1)Cc1ccccc1 = 2.18

Prompt: Bench note: what log10(IC50) did CCCCCCCCNC(=O)N(CCCCCSc1nc(-c2ccccc2)c(-c2ccccc2)[nH]1)c1c(F)cc(F)cc1F show?
Response: 1.30

Prompt: Same again, this time with CCCCCCCN(CCCCCCCCSc1nc(-c2ccccc2)c(-c2ccccc2)[nH]1)C(=O)Nc1ccc(F)cc1F
Response: 0.90

Prompt: Here is the next compound: CCCCCCCN(Cc1cccc(CSc2nc(-c3ccccc3)c(-c3ccccc3)[nH]2)c1)C(=O)Nc1ccc(F)cc1F
Response: 1.48

Prompt: Same for CCCCCCCN(CCCCCSc1ncc(-c2ccccc2)n1-c1ccccc1)C(=O)Nc1ccc(F)cc1F
Response: 3.86

Prompt: Note, next up: CCCCCCCN(CCCCCSc1nc(-c2ccccc2)c(-c2ccccc2)[nH]1)C(=O)NC
Response: 1.60

Prompt: Next record, please: CCCCCCCCNC(=O)N(CCCCCSc1nc(-c2ccccc2)c(-c2ccccc2)[nH]1)c1ccc(F)cc1F
Response: 1.60

Prompt: Entry CCCCCCCN(CCCCCSc1nc(-c2ccccc2)c(-c2ccccc2)[nH]1)C(=O)Oc1ccccc1 please
Response: 1.30

Prompt: Follow-up entry: O=C(Nc1ccc(F)cc1F)N(CCCCCSc1nc(-c2ccccc2)c(-c2ccccc2)[nH]1)CCCCc1ccccc1
Response: 1.70

Prompt: Next: CCCCCCCN(CCCCCSc1nc(-c2ccccc2)cn1-c1ccccc1)C(=O)Nc1ccc(F)cc1F
Response: 4.62

Prompt: Would you mind doing CCCCCCCN(CCCCCSc1nc(-c2ccccc2)c(-c2ccccc2)[nH]1)C(=O)Nc1c(F)cc(F)cc1F as well?
Response: 1.20

Prompt: And what about the compound CCCCCCCN(CCCCCSc1nc(-c2ccccc2)c(-c2ccccc2)[nH]1)C(=O)OCCC ?
Response: 1.53

Prompt: And for CCCCCCCN(CCCCCSc1nc(-c2ccccc2)c(-c2ccccc2)[nH]1)C(N)=O ?
Response: 2.96

Prompt: What do you have for CCCCCCCN(CCCCCSc1nc(-c2ccccc2)c(-c2ccccc2)[nH]1)C(=O)Cc1ccc(-c2ccccc2)cc1 ?
Response: 2.20

Prompt: Now try CCCCCCCN(CCCCCSc1nc(-c2ccccc2)c(-c2ccccc2)n1C)C(=O)Nc1ccc(F)cc1F .
Response: 3.56

Prompt: Similarly, CCCCCCCN(Cc1ccc(CSc2nc(-c3ccccc3)c(-c3ccccc3)[nH]2)cc1)C(=O)Nc1ccc(F)cc1F ?
Response: 2.30

Prompt: What do you get for CCCCCCCN(CCCCCSc1ncc[nH]1)C(=O)Nc1ccc(F)cc1F ?
Response: 3.46

Prompt: Now consider CCCCCCCN(CCCCC[S+]([O-])c1nc(-c2ccccc2)c(-c2ccccc2)[nH]1)C(=O)Nc1ccc(F)cc1F (configuration not stated) .
Response: 0.90
